- TARGET SYSTEM: G12V-mutant human KRAS (amino acid residues 1-188) (Homo sapiens, UniProt P01116, G12V)
- Construct: G12V-mutant human KRAS (amino acid residues 1-188) with FLAG tag was purified from E. coli; made in house; host or cells: E. coli
- MEASUREMENT NOTES: KRAS Binding Competition Assay (AlphaScreen; biotinylated KRpep-2d analogue), G12V
- CONDITION NOTES: geometric mean, read-out: KRAS GMean IC50 (uM) MUTATION: G12V
EXPERIMENTAL READOUT: IC50

Give G12V-mutant human KRAS (amino acid residues 1-188) (Homo sapiens, UniProt P01116, G12V) IC50 for `CN1CCC[C@H]1COc1nc(N2C[C@H]3CC[C@@H](C2)N3C(=O)C(N)=O)c2ccc(-c3cc(O)cc4ccccc34)c(F)c2n1`
0.0001 to 10 µM

Next molecule up: `CN(C)c1cccc(COc2nc(N3[C@@H]4CC[C@H]3CNC4)c3ccc(-c4cc(O)cc5ccccc45)cc3n2)c1`
0.0001 to 10 µM

Next molecule up: `Oc1cc(-c2ccc3c(N4C[C@H]5CC[C@@H](C4)N5)nc(N4CC(O)C4)nc3c2F)c2ccccc2c1`
100 to 1000 µM

Next molecule up: `CN1CCC[C@H]1COc1nc(N2CC3COCC(C2)N3)c2cc(Cl)c(-c3cc(O)cc4cccc(Cl)c34)c(F)c2n1`
0.0001 to 10 µM

Next molecule up: `CN1CCC[C@H]1COc1nc(N2[C@@H]3CC[C@H]2CN(C(=O)Cn2ccnc2)C3)c2ccc(-c3cc(O)cc4ccccc34)cc2n1`
10 to 100 µM

Next molecule up: `OCC1(COc2nc(N3C[C@H]4CC[C@@H](C3)N4)c3ccc(-c4cc(O)cc5ccccc45)c(F)c3n2)COC1`
10 to 100 µM

Next molecule up: `O=C(N[C@H]1CCNC1)N1[C@@H]2CC[C@H]1CN(c1nc(OCC34CCCN3CCC4)nc3cc(-c4cc(O)cc5ccccc45)ccc13)C2`
0.0001 to 10 µM

* * *

- TARGET SYSTEM: G12V-mutant human KRAS (amino acid residues 1-188) (Homo sapiens, UniProt P01116, G12V)
- Construct: G12V-mutant human KRAS (amino acid residues 1-188) with FLAG tag was purified from E. coli; made in house; host or cells: E. coli
- MEASUREMENT NOTES: KRAS Binding Competition Assay (AlphaScreen; biotinylated KRpep-2d analogue), G12V
- CONDITION NOTES: geometric mean, read-out: KRAS GMean IC50 (uM) MUTATION: G12V
EXPERIMENTAL READOUT: IC50

{"COMPOUND": "CN1CCC[C@H]1COc1nc(N2C[C@H]3CC[C@@H](C2)N3)c2ccc(-c3cccc4ccccc34)cc2n1", "IC50": "100 to 1000 µM"}

Param item = `CN1CCC[C@H]1COc1nc(N2C[C@H]3CC[C@@H](C2)N3)c2ccc(-c3ccnc(N)c3)cc2n1` ; retrieve measured IC50.
10 to 100 µM

Next compound up: `Cc1cccc2c(Nc3ccc4c(N5C[C@H]6CC[C@@H](C5)N6)nc(OC[C@@H]5CCCN5C)nc4c3F)n[nH]c12`
100 to 1000 µM

Next compound up: CN1CCC[C@H]1COc1nc(N2CC3CCC2CN3)c2ccc(-c3cc(O)cc4ccccc34)c(F)c2n1 (some centres unmarked)
10 to 100 µM

Next compound up: `O=C(NCCN1CCOCC1)N1[C@@H]2CC[C@H]1CN(c1nc(OCC34CCCN3CCC4)nc3cc(-c4cc(O)cc5ccccc45)ccc13)C2`
0.0001 to 10 µM

Next compound up: `Oc1cc(-c2c(F)cc3c(N4C[C@H]5CC[C@@H](C4)N5)nc(OCC45CCCN4CCC5)nc3c2F)c2ccccc2c1`
0.0001 to 10 µM

Next compound up: `CN1CCC[C@H]1COc1nc(N2C[C@H]3CC[C@@H](C2)N3)c2ccc(-c3cc4ccccc4s3)cc2n1`
100 to 1000 µM

Next compound up: `CN1CCC[C@H]1COc1nc(N2C[C@H]3CC[C@@H](C2)N3)c2ccc(-n3nc(O)c4cccc(F)c43)c(F)c2n1`
100 to 1000 µM

Next compound up: CN1CCC[C@H]1COc1nc(N2CC[C@@H]3CC[C@H](C2)N3C(=O)NC2CCOC2)c2ccc(-c3cc(O)cc4ccccc34)c(F)c2n1 (some centres unmarked)
0.0001 to 10 µM

Next compound up: `CN1CCc2cccc(Oc3nc(N4C[C@H]5CC[C@@H](C4)N5)c4ccc(-c5c(O)cccc5F)c(F)c4n3)c2C1`
10 to 100 µM

Next compound up: Oc1cc(-c2ccc3c(N4C[C@H]5CC[C@@H](C4)N5)nc(OCC4CCC4O)nc3c2F)c2ccccc2c1 (some centres unmarked)
10 to 100 µM

* * *

- TARGET SYSTEM: G12V-mutant human KRAS (amino acid residues 1-188) (Homo sapiens, UniProt P01116, G12V)
- Construct: G12V-mutant human KRAS (amino acid residues 1-188) with FLAG tag was purified from E. coli; made in house; host or cells: E. coli
- MEASUREMENT NOTES: KRAS Binding Competition Assay (AlphaScreen; biotinylated KRpep-2d analogue), G12V
- CONDITION NOTES: geometric mean, read-out: KRAS GMean IC50 (uM) MUTATION: G12V
EXPERIMENTAL READOUT: IC50

Some compounds with known IC50 results, for comparison:
{"COMPOUND": "CN1CCC[C@H]1COc1nc(N2C[C@H]3CC[C@@H](C2)N3)c2ccc(-c3c(F)ccc(O)c3F)cc2n1", "OBS VALUE": "100 to 1000 µM"}
{"COMPOUND": "CN1CCC[C@H]1COc1nc(N2C[C@H]3CC[C@@H](C2)N3C(=O)CCC(N)=O)c2ccc(-c3cc(O)cc4ccccc34)c(F)c2n1", "OBS VALUE": "0.0001 to 10 µM"}
{"COMPOUND": "CN1CCc2cc(Oc3nc(N4[C@@H]5CC[C@H]4CNC5)c4ccc(-c5cc(O)cc6ccccc56)cc4n3)ccc2C1", "OBS VALUE": "0.0001 to 10 µM"}
{"COMPOUND": "CN1CCC[C@H]1COc1nc(N2C[C@H]3CC[C@@H](C2)N3)c2ccc(-c3c(O)cccc3F)cc2n1", "OBS VALUE": "10 to 100 µM"}
{"COMPOUND": "CN1CCC[C@H]1COc1nc(N2C[C@H]3CC[C@@H](C2)N3CC(N)=O)c2ccc(-c3cc(O)cc4ccccc34)c(F)c2n1", "OBS VALUE": "0.0001 to 10 µM"}
{"COMPOUND": "O=C(NC1CCNC1)N1[C@@H]2CC[C@H]1CN(c1nc(OCC34CCCN3CCC4)nc3cc(-c4cc(O)cc5ccccc45)ccc13)C2 (stereo partly shown)", "OBS VALUE": "0.0001 to 10 µM"}

Next:
Param item = `CN1CCC[C@H]1COc1nc(N2[C@@H]3CC[C@H]2CN(C(=O)[C@H]2CCCN2)C3)c2ccc(-c3cc(O)cc4ccccc34)cc2n1` ; retrieve measured IC50.
100 to 1000 µM

* * *

- TARGET SYSTEM: G12D-mutant human KRAS (amino acid residues 1-188) (Homo sapiens, UniProt P01116, G12D)
- Construct: G12D or G12C-mutant human KRAS (amino acid residues 1-188) with FLAG tag; made in house; host or cells: E. coli
- MEASUREMENT NOTES: KRAS Binding Disruption Assay (AlphaScreen; biotinylated KRpep-2d analogue or RAF1-RBD), G12D
- CONDITION NOTES: KRAS G12D; geometric mean; read-out: KRAS GMean IC50 (uM) MUTATION: G12D
Examples of compounds with documented IC50 follow.

Param item = `O=C(O)CNC(=O)N1[C@@H]2CC[C@H]1CN(c1nc(OCC34CCCN3CCC4)nc3cc(-c4cc(O)cc5ccccc45)ccc13)C2` ; retrieve measured IC50.
0.0001 to 10 µM

* * *

Examples of molecules with documented IC50 follow.
- TARGET SYSTEM: G12V-mutant human KRAS (amino acid residues 1-188) (Homo sapiens, UniProt P01116, G12V)
- Construct: G12V-mutant human KRAS (amino acid residues 1-188) with FLAG tag was purified from E. coli; made in house; host or cells: E. coli
- MEASUREMENT NOTES: KRAS Binding Competition Assay (AlphaScreen; biotinylated KRpep-2d analogue), G12V
- CONDITION NOTES: geometric mean, read-out: KRAS GMean IC50 (uM) MUTATION: G12V

Param item = `CN1CCC[C@H]1COc1nc(N2C[C@H]3CC[C@@H](C2)N3)c2ccc(-c3cc(O)cc(C(F)(F)F)c3)cc2n1` ; retrieve measured IC50.
100 to 1000 µM

Next molecule up: CN1CCC[C@H]1COc1nc(N2C[C@H]3CC[C@@H](C2)N3)c2cc(F)c(N3CC(O)Cc4ccccc43)c(F)c2n1 (some centres unmarked)
100 to 1000 µM

Next molecule up: OCC1CN(c2nc(N3C[C@H]4CC[C@@H](C3)N4)c3ccc(-c4cc(O)cc5ccccc45)c(F)c3n2)CC1O (some centres unmarked)
10 to 100 µM

Next molecule up: `CN1CCC[C@H]1COc1nc(N2C[C@H]3CC[C@@H](C2)N3)c2ccc(-c3c[nH]c4cccc(Cl)c34)cc2n1`
10 to 100 µM

Next molecule up: CN1CCC[C@H]1COc1nc(N2CC3CCCC2CN3)c2ccc(-c3cc(O)cc4ccccc34)c(F)c2n1 (some centres unmarked)
10 to 100 µM

Next molecule up: `CN1CCC[C@H]1COc1nc(N2C[C@H]3CC[C@@H](C2)N3)c2ccc(-c3ccc4cn[nH]c4c3)cc2n1`
100 to 1000 µM

Next molecule up: `CN1C2CCC1(COc1nc(N3C[C@H]4CC[C@@H](C3)N4)c3ccc(-c4cc(O)cc5ccccc45)cc3n1)CC2`
10 to 100 µM

Next molecule up: `COC(=N)CC(=O)N1[C@@H]2CC[C@H]1CN(c1nc(OC[C@@H]3CCCN3C)nc3c(F)c(-c4cc(O)cc5ccccc45)c(Cl)cc13)C2`
10 to 100 µM

Next molecule up: `CC(C)(O)CNC(=O)N1[C@@H]2CC[C@H]1CN(c1nc(OCC34CCCN3CCC4)nc3cc(-c4cc(O)cc5ccccc45)ccc13)C2`
0.0001 to 10 µM

Next molecule up: CN1C(=O)SC(CC(=O)N2[C@@H]3CC[C@H]2CN(c2nc(OCC45CCCN4CCC5)nc4c(F)c(-c5cc(O)cc6ccccc56)ccc24)C3)C1=O (some centres unmarked)
0.0001 to 10 µM

Next molecule up: `CN1CCN(CCNC(=O)N2C[C@H]3CC[C@@H](C2)N3c2nc(OC[C@@H]3CCCN3C)nc3cc(-c4cc(O)cc5ccccc45)ccc23)CC1`
10 to 100 µM

Next molecule up: `CC(C)(COc1nc(N2C[C@H]3CC[C@@H](C2)N3)c2ccc(-c3cc(O)cc4ccccc34)c(F)c2n1)C(N)=O`
10 to 100 µM
